Field: GI50. Provide a value for each of the compounds that follow.
- Test system: OVCAR-4
- TEST PROTOCOL: NCI tumour cell line growth inhibition, 48 h
The source made the active and inactive calls. No stated cut-off is given here; in the data, active = GI50 up to about 1.1 µM and inactive = higher.

Qu. Using known records, supply GI50 for CC1(C)CC2(C)CC1CC2NC(=O)CCN1CCOCC1 (stereo not drawn)
Ans. > 100 µM (inactive)

Qu. Using known records, supply GI50 for COc1ccccc1/N=C(\N)N/N=C/c1c[nH]c2ccccc12
Ans. 16.8 µM (inactive)

Qu. Using known records, supply GI50 for COc1ccc2c(C)cc(N/N=C/c3ccc(C)s3)nc2c1
Ans. 11.1 µM (inactive)

Qu. Using known records, supply GI50 for COC[C@@H](/N=C/c1ccc(OC)cc1)C(C)C
Ans. > 100 µM (inactive)

Qu. Using known records, supply GI50 for CCOC(=O)/C=C(\C)c1ccc(C)cc1C
Ans. > 100 µM (inactive)

Qu. Using known records, supply GI50 for N#CC(N)(C(=O)CCC(=O)Nc1cccc(Cl)c1)c1ccc(Cl)cc1 (stereo not drawn)
Ans. > 100 µM (inactive)

Qu. Using known records, supply GI50 for O=c1[nH]c2ccc([N+](=O)[O-])cc2nc1/C(=N/Nc1ccccc1)C(O)c1ccco1 (stereo not drawn)
Ans. 66.2 µM (inactive)

Qu. Using known records, supply GI50 for COC(=O)C(C(=O)C(=O)Nc1cccc(OC)c1)c1cnc2ccccc2n1 (stereo not drawn)
Ans. > 100 µM (inactive)

Qu. Using known records, supply GI50 for CCCCCCCCCCCCCCC(C(=O)[O-])[n+]1ccccc1 (stereo not drawn)
Ans. > 100 µM (inactive)

Qu. Using known records, supply GI50 for Cc1[nH]nc(C(=O)N/N=C/c2ccccc2Cl)c1/N=N\N(C)C
Ans. 14.9 µM (inactive)

Qu. Using known records, supply GI50 for CCOC(=O)NC(=O)c1cn(C2CCCCC2)c(=O)n(C)c1=O
Ans. > 100 µM (inactive)

Qu. Using known records, supply GI50 for CCC12CCCC(=O)N1C(CO)C(c1ccccc1)O2 (stereo not drawn)
Ans. > 100 µM (inactive)

Qu. Using known records, supply GI50 for O=C(c1cc2c(c3ccccc13)NC1(CCCCC1)N=C2C(F)(F)F)C(F)(F)F
Ans. 3.73 µM (inactive)

Qu. Using known records, supply GI50 for O=C(O)CN(c1ccc(Cl)cc1)S(=O)(=O)c1ccccc1
Ans. > 100 µM (inactive)

Qu. Using known records, supply GI50 for COc1ccc(OC)c(NC(=O)c2c(Cl)c(Cl)c(Cl)c(Cl)c2-c2nc3ccccc3[nH]2)c1
Ans. > 100 µM (inactive)

Qu. Using known records, supply GI50 for OCc1cc2ccncc2c2c1[nH]c1ccccc12
Ans. 6.95 µM (inactive)

Qu. Using known records, supply GI50 for O=C1C=CC(=O)c2c1ccc1c3ccccc3n(CCCCCCCCn3c4ccccc4c4ccc5c(c43)C(=O)C=CC5=O)c21
Ans. > 100 µM (inactive)

Qu. Using known records, supply GI50 for CNC(=O)OCc1nc(SC)n(C)c1CO
Ans. > 100 µM (inactive)

Qu. Using known records, supply GI50 for CCCCCCCCCCCCCCCCOP(=O)([O-])OCC[N+](C)(C)C1CC(C)(C)N(O)C(C)(C)C1
Ans. > 100 µM (inactive)

Qu. Using known records, supply GI50 for CCOc1ccc2c(c1)[n+]([O-])c(-c1ccccc1)c(N)[n+]2[O-]
Ans. > 100 µM (inactive)

Qu. Using known records, supply GI50 for [O-][n+]1c2ccccc2[n+]([O-])c2cc(Br)ccc21
Ans. 18.9 µM (inactive)

Qu. Using known records, supply GI50 for Cc1ccc(Nc2ccc(Nc3ccc(C)cc3)c3c2C(=O)c2c(O)ccc(O)c2C3=O)cc1
Ans. > 100 µM (inactive)

Qu. Using known records, supply GI50 for CSc1ncc2c(C#N)c3ccccn3c(=O)c2n1
Ans. > 100 µM (inactive)
